# target: PDZRN4_1, Q6ZMN7
# Sequence (Q6ZMN7 213-318): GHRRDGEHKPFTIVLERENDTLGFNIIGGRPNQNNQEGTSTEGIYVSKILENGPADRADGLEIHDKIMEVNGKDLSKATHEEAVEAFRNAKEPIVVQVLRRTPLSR
# procedure-details: holdup assay
# Design: key: below the threshold = too weak to quantify, mostly under pKd 3.1 to 4
# assay-setup: plain residues with an end cap or a label only (N-terminal biotin on a linker: ahx)
outcome-measure: pKd
Enter the number alone.

[
  {
    "binder": "QDEKVKESYV [ABCA1, O95477]",
    "recorded-number": 3.95
  }
]

We now examine a further binder.
q: Entry under review: TQKFRASTAL [FRMPD1, Q5SYB0] . Reported pKd?
a: 4.17
